List of Kd values.
- targetDesc: T1, EsCas13d, nuclease-dead (Eubacterium siraeum, UniProt B0MS50, R295A;H300A;R849A;H854A)
- T1 sequence: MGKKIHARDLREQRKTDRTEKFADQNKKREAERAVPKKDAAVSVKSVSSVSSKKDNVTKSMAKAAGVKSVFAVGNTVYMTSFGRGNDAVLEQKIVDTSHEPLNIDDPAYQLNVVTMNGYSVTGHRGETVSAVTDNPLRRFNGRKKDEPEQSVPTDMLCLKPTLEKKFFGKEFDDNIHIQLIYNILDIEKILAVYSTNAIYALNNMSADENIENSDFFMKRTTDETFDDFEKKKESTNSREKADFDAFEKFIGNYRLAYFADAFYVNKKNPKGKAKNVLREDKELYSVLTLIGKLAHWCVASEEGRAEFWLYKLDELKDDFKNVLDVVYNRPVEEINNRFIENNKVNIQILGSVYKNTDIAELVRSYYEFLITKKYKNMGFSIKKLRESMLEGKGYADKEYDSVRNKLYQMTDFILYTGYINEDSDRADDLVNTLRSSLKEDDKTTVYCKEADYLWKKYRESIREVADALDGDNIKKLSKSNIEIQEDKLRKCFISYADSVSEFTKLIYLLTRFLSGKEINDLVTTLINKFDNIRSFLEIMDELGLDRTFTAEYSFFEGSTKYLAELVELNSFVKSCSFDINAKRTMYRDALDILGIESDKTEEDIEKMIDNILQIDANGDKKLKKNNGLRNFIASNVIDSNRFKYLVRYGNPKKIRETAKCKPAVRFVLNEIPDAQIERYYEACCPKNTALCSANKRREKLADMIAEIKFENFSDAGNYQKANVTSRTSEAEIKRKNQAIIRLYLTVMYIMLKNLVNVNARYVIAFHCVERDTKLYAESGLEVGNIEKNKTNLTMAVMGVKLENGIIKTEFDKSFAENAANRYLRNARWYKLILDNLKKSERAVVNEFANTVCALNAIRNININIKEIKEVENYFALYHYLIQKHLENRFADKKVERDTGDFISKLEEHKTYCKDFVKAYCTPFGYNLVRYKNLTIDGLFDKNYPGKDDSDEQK
- assay: crRNA (strand 1, pre-loaded); Mg2+; 40 mM Tris-HCl pH 7.5, 150 mM NaCl, 6 mM MgCl2, 1 mM DTT, 0.1% Tween-20, 0.2 mg/ml BSA; 25 C; 10 min per concentration, then washed
- runConditions: tags: His6-TwinStrep-SUMO cleaved; N-terminal SNAP kept (SNAP-Surface 488); label: 3' end held by stalled T7 RNA polymerase

## Input # query: Kd of entry target 2 MT 5'PFS AGA 3'PFS CCA (mixed) RNA 1: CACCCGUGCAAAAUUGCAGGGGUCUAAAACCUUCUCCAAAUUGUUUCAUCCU RNA 2: GGGAAUGGAUCCACAUCUACGAAUUCAGAAGGAUGAAACAAUUUGGAGAAGCCAAGAUCGGAAGAGCACACGU
## Output ~24 nM

## Input Now give it for target 1 MT 5'PFS AGU 3'PFS AAA (mixed) RNA 1: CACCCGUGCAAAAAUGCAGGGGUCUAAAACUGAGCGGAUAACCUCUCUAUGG RNA 2: GGGAAUGGAUCCACAUCUACGAAUUCAGUCCAUAGAGAGGUUAUCCGCUCAAAAAGAUCGGAAGAGCACACGU too.
## Output ~100 nM
